assay: basal S. cerevisiae growth modulation, no modifier, primary screen, OD600, strain BY4716, 24 h, basal condition (AID 1173); conditions: OD600, 24 h, called active from +8 up or from −8 down
The source made the active and inactive calls.
The categories you may choose from are active, inactive

Look over these answered cases.
O=C(CS)NCCCCCCNC(=O)[C@@H]1C[C@@H]2C(=O)NCC(=O)N2[C@@H]1c1ccc(O)cc1 :: inactive
CCN(CC)c1ccc(N2CC=CC34O[C@@H]5/C=C\CCC(C)OC(=O)C5[C@H]3C(=O)N(C(C)CO)[C@@H]4C2=O)cc1 (stereo not given in full) :: inactive

// query For CCCCCCCCCCC(O)C1C=CC2C(=O)N(c3ccccc3)C(=O)C2N1Nc1ccccc1F (stereo not given) , which call appears in the assay record?
// result inactive

* * *

molecular target: Homeobox protein Hox-A13 (Mus musculus); experiment: inhibitors of HoxA13-DNA binding, primary screen, biochemical, fluorescence polarization, labeled oligonucleotide (AID 1185); conditions: 15 min, higher = more signal, called active from +8 up or from −8 down
In this section, each of the molecules is paired with its reported z-score.
I'd appreciate a reply containing only the number, no unit.

Record `[N-]=[N+]=Nc1ccccc1C[C@]1(C(=O)O)N=C(c2ccc(OCCCO)cc2)O[C@H]1c1ccccc1N=[N+]=[N-]` has Homeobox protein Hox-A13 (Mus musculus) z-score equal to -4.13

Record `COC(=O)C(CC#Cc1ccc2c(c1)[C@]1(C(=O)N2)[C@H](C(=O)Nc2nc3ccccc3s2)[C@H]2C(=O)O[C@H](c3ccccc3)[C@H](c3ccccc3)N2[C@@H]1c1ccc(OCCO)cc1)C(=O)OC` has Homeobox protein Hox-A13 (Mus musculus) z-score equal to 0.713

Record `O=C(NCCN1CCOCC1)[C@@H]1c2ccccc2C(=O)N(Cc2ccccc2)[C@H]1c1ccc(CO)cc1` has Homeobox protein Hox-A13 (Mus musculus) z-score equal to -3.79

Record `CN(C)CCCCCCNC(=O)[C@@H]1C[C@@H]2C(=O)N[C@@H](CCCCN)C(=O)N2[C@@H]1c1ccc(O)cc1` has Homeobox protein Hox-A13 (Mus musculus) z-score equal to -1.14

Record `COc1ccc([Si](C)(C)[C@@H]2[C@@H](CCn3cc([C@H](O)c4ccccc4)nn3)O[C@]3(C(=O)N(c4ccccc4)c4ccccc43)[C@H]2C)cc1` has Homeobox protein Hox-A13 (Mus musculus) z-score equal to -3.01

Record `O=C1O[C@H](c2ccccc2)[C@H](c2ccccc2)N2[C@H]1[C@@H](C(=O)O)[C@]1(C(=O)Nc3ccc(C#CC4(O)CCCCCC4)cc31)[C@H]2c1ccc(O)cc1` has Homeobox protein Hox-A13 (Mus musculus) z-score equal to -6.61

* * *

test: basal RPMI8226 mitochondrial membrane potential changes, profiling panel, cell-based, JC-1 fluorescence, 24 h, 100 nL compound (AID 1169); conditions: RPMI8226 myeloma, JC-1 mitochondrial potential fluorescence, higher = more signal; note: test concentration not given here
Output 1.0 for z-score not less than -0.2; output 0.0 otherwise.

Look over these answered cases.
CC(C)C(=C=CC[C@@H](O)c1cccc(OCCO)c1)C[C@@H](O)COCc1ccccc1 :: 1.0
CC(C)C(=C=CC[C@H](O)c1cccc(OCCO)c1)CCO :: 1.0
C=CCNC(=O)[C@@H]1[C@H]2C(=O)O[C@H](c3ccccc3)[C@H](c3ccccc3)N2[C@H](c2ccc(OCCO)cc2)[C@@]12C(=O)N(C(=O)OCCOC)c1ccc(C#CCCO)cc12 :: 0.0

// query Item COc1cc(NN2C(C(O)C3CCCCC3)C=CC3C(=O)N(c4ccccc4)C(=O)C32)cc(OC)c1OC (stereo not drawn) with z-score of -0.2 or above?
// result 0.0

// query Item `[N-]=[N+]=NC[C@H](Cc1ccccc1)NC(=O)c1ccccc1` with z-score of -0.2 or above?
// result 1.0

// query Item O=C1C2C=CC(C(O)C=Cc3ccc([N+](=O)[O-])cc3)N(Nc3ccccc3)C2C(=O)N1c1ccccc1 (stereo not drawn) with z-score of -0.2 or above?
// result 1.0

// query Item CC(C)[C@H]1NC(=O)[C@@]23C(=O)N[C@@H](Cc4ccccc4)C2[C@H](C)[C@@]2(C)O[C@H]2C3/C=C/CCC/C=C/CNC(=O)[C@H](Cc2ccccc2)NC1=O (stereo partly drawn) with z-score of -0.2 or above?
// result 1.0

// query Item `O=C(O)[C@H]1C[C@H]2C(=O)N[C@@H](Cc3ccccc3)C(=O)N2[C@H]1c1cccc(OCCO)c1` with z-score of -0.2 or above?
// result 0.0

Recorded values, source PubChem BioAssay.
